System: panel of 55 breast cancer cell lines
Test Method Notes: Cell growth inhibition assay (Cell Titer Glo, 72 h, 9 doses; GI50, TGI, LC50)
Assay type: cell-based, human
Condition Description: cell line HCC202; value is the negative log10 of mol/L
Measurement Label: GI50

Compound: CC(C)(C)c1cc(C=C(C#N)C#N)cc(Br)c1O [AG1024]
GI50: 4.92

Entry CC(C)[C@H](CO)Nc1nc(Nc2cccc(Cl)c2)c2ncn(C(C)C)c2n1 [Purvalanol A] , GI50 reported as 3.99

# GI50 of COc1ccc(C2=N[C@@H](c3ccc(Cl)cc3)[C@@H](c3ccc(Cl)cc3)N2C(=O)N2CCNC(=O)C2)c(OC(C)C)c1 [Nutlin 3a] = 5.02

Summary for this compound, CC(/C=C/C(=O)NO)=C\[C@@H](C)C(=O)c1ccc(N(C)C)cc1 [Trichostatin A] : GI50 is 6.04

GI50 measured on O=c1[nH]c(=O)n([C@H]2C[C@H](O)[C@@H](CO)O2)cc1F [5-FdUR] = 4.41

Record COc1cc2ncnc(Nc3cccc(Cl)c3)c2cc1OC [AG1478] , field GI50: 5.75

----------
Test system: panel of 55 breast cancer cell lines
Test Method Notes: Cell growth inhibition assay (Cell Titer Glo, 72 h, 9 doses; GI50, TGI, LC50)
Format: cell-based, human
Condition Description: cell line HCC1500; censored GI50 values; value is the negative log10 of mol/L
Measurement Label: GI50
Output: the number by itself.

Molecule: COc1cc2c(Nc3ccc(NC(=O)c4ccccc4)cc3)ncnc2cc1OCCCN1CCOCC1 [ZM447439]
GI50: 5.28
--
Molecule: O=C1NC(=O)/C(=C/c2ccc3nccc(-c4ccncc4)c3c2)S1 [GSK1059615B]
GI50: 5.71
--
Molecule: COc1ncc(-c2ccc3nccc(-c4ccnnc4)c3c2)cc1NS(=O)(=O)c1ccc(F)cc1F [GSK2126458A]
GI50: 7.11

For the next question, use this molecule.
Memo: COc1ccc(C2=N[C@@H](c3ccc(Cl)cc3)[C@@H](c3ccc(Cl)cc3)N2C(=O)N2CCNC(=O)C2)c(OC(C)C)c1 [Nutlin 3a] , reported GI50: 4.57

----------
Tested on: panel of 55 breast cancer cell lines
Test Method Notes: Cell growth inhibition assay (Cell Titer Glo, 72 h, 9 doses; GI50, TGI, LC50)
Assay type: cell-based, human
Condition Description: cell line CAMA1; value is the negative log10 of mol/L
Measurement Label: GI50
Please give the numeric answer without any surrounding text.

Molecule: O=C1NC(=O)/C(=C/c2ccc(-c3ccc(F)cc3O)o2)S1 [AS-252424]
GI50: 4.18

GI50 measured on COc1ccc(C2=N[C@@H](c3ccc(Cl)cc3)[C@@H](c3ccc(Cl)cc3)N2C(=O)N2CCNC(=O)C2)c(OC(C)C)c1 [Nutlin 3a] = 4.30

Notebook: CC(C)Oc1ccc(C(=O)N[C@H](CNC(=O)CN(C)C)Cc2ccc(-c3cn4cccc([C@H](C)O)c4n3)cc2)cc1Cl [GSK923295] , GI50 read as 7.33

Lookup result for COc1cccc(-c2cc(=O)c3ccccc3o2)c1N [PD 98059] ; measured GI50: 4.65

Form field GI50, entry O=C1C(Cl)=C(NCCN2CCOCC2)C(=O)c2ncccc21 [NSC 663284] : 5.58

Reported GI50 of CCc1c2c(nc3ccc(OC(=O)N4CCC(N5CCCCC5)CC4)cc13)-c1cc3c(c(=O)n1C2)COC(=O)[C@]3(O)CC [CPT-11] : 4.84

Per the records, this molecule ( CCNCCCCNCCCCNCCCCNCCCCNCC=CCNCCCCNCCCCNCCCCNCCCCNCC.Cl.Cl.Cl.Cl.Cl.Cl.Cl.Cl.Cl.Cl (stereo in doubt) [CGC-11144] ) has GI50 equal to 6.40

molecule CCn1cc(-c2ccnc3[nH]c(-c4cccc(CN(C)C)c4)cc23)c(-c2ccc(NC(=O)N(C)C)cc2)n1 [GSK1070916] , GI50 observed: 5.05
